// values below are reported TGI
Tested on: SN12C renal
Experimental Protocol: NCI tumour cell line growth inhibition, 48 h

See these solved cases before continuing.
INSERT INTO results (compound, quantity, result) VALUES
  ('COc1ccc2c(c1)C(=O)c1c-2n(CCCn2ccnc2)c(=O)c2ccccc12', 'TGI', '> 100 µM'),
  ('Cc1sc2nc(N(C)C)oc(=O)c2c1C', 'TGI', '> 100 µM'),
  ('COC(=O)c1cccc2cccc(C(=O)Nc3ccc(C)cc3C)c12', 'TGI', '> 100 µM'),
  ('COc1cc2oc(-c3ccc(O)cc3)cc(=O)c2c(OC)c1OC', 'TGI', '> 100 µM');

stdin: Need TGI, item CCOC1=NC(=O)CC(c2ccccc2)S1 (stereo not drawn)
stdout: > 100 µM

stdin: // lookup TGI for CC[C@]12C=CCN3CC[C@@]4(c5cc(Br)c(OC)c([N+](=O)[O-])c5N(C)[C@H]4[C@@](O)(C(=O)OC)[C@@H]1OC(C)=O)[C@@H]32
stdout: > 100 µM

---

Test system: SK-MEL-28 melanoma
Experimental Protocol: NCI tumour cell line growth inhibition, 48 h
Property: TGI; scope: individual molecules

INSERT INTO assay_data (molecule, result) VALUES
  ('CCS(=O)(=O)c1ccc(OC)c(Nc2ncc(-c3cccc(OC)c3)o2)c1', '> 25 µM'),
  ('COC(=O)C(=O)C(C(=O)C(=O)Nc1ccccc1C(N)=O)c1nc2ccc(Cl)cc2[nH]c1=O (centres undefined)', '> 100 µM'),
  ('COc1ccc(CNc2ccn(C3OC(CO)C(O)C3O)c(=O)n2)cc1 (centres undefined)', '> 100 µM');

Could you now consider this next molecule?
stdin: Look at this molecule and give its reported TGI. CC(C)(C)c1cc(S(=O)(=O)O)c2oc(-c3ccccc3)cc(=O)c2c1
stdout: > 100 µM

---

Tested on: NCI-H23 lung
Experimental Protocol: NCI tumour cell line growth inhibition, 48 h
# TGI annotations

INSERT INTO results (compound, result) VALUES
  ('Cc1cccc(NC(=O)C(=O)Cc2nc3ccccc3[nH]c2=O)c1C', '> 100 µM'),
  ('CC(NC(=O)OCc1ccccc1)NC(=O)OC(C)(C)C (stereo not drawn)', '> 100 µM'),
  ('Cc1cc(C)nc(NS(=O)(=O)c2ccc(Nc3c4ccccc4nc4c(C(=O)Nc5ccc(S(=O)(=O)Nc6cc(C)on6)cc5)cccc34)cc2)n1', '51.1 µM'),
  ('CCOC(=O)CC[C@H](N)C(=O)N[C@@H](Cc1ccc(N(CCCl)CCCl)cc1)C(=O)OCC', '1.35 µM'),
  ('COc1ccc(C(=O)c2cc(C)c(OC)c(C)c2)c(OC)c1N(C(=O)C(Cl)Cl)C(=O)C(Cl)Cl', '> 100 µM');

stdin: Entry Cc1ccc2nc3c(C(=O)NCCN(C)C)cccc3nc2c1 has what TGI?
stdout: 17.1 µM

stdin: Please look up its TGI: COc1c2c(cc3nc4ccccc4nc13)CCC(C(C)(C)O)C2 (stereo not drawn)
stdout: > 100 µM

stdin: // TGI lookup, key: O=C(/C=C/c1cccc([N+](=O)[O-])c1)N1CCN(CCOC(c2ccccc2)c2ccccc2)CC1
stdout: > 100 µM

stdin: Name the recorded TGI for Nc1cc(Cl)cc2cc(Cl)cnc12 .
stdout: > 100 µM

stdin: Recorded TGI for CCN(CC)c1sc(N(CC)CC)c2c1SSSSS2 , please?
stdout: 0.674 µM

stdin: Please report the recorded TGI for NC1C/C(=N\O)c2c(Cl)sc(Cl)c21 (stereo not drawn) .
stdout: 33.7 µM

stdin: Field request: TGI | item: C[C@]12CCC(O)CC1=CC[C@@H]1[C@@H]2CC[C@]2(C)C(O)[C@H](n3ccnc3)C[C@@H]12 (stereo partly drawn)
stdout: > 100 µM

stdin: Fill blank: measured TGI of the compound O=C1C2=Cc3ccccc3CCN2c2ccccc21 is ____.
stdout: > 100 µM

---

System: XF 498 CNS
Experimental Protocol: NCI tumour cell line growth inhibition, 48 h
Quantity: TGI

See these solved cases before continuing.
INSERT INTO assay_data (compound, experimental_system, result) VALUES
  ('COC(=O)c1cccc2cccc(C(=O)Nc3ccc(C)cc3C)c12', 'XF 498 CNS', '> 100 µM'),
  ('CC1=C(C)CC2(CCCCC2=O)S(=O)C1 (stereo not given)', 'XF 498 CNS', '> 100 µM');

stdin: I'd like to know its TGI. The compound in question is CCOC(=O)CN=c1nc(SC)sc2c(C(=O)OCC)nc(Sc3ccccc3)n12
stdout: > 100 µM

stdin: Bench note: what TGI did Cc1[nH]c(=O)[nH]c(=O)c1/C=C/C(=O)NC(CO)CC(C)C (stereo not given) show?
stdout: > 346 µM

stdin: Entry CC1(n2nc(-c3ccccc3)n(-c3ccccc3)c2=O)CSC1 has what TGI?
stdout: > 100 µM

stdin: # TGI lookup, item CN/N=C(/CCN1CCCC1)CC(c1ccccc1)c1c(O)c2ccccc2oc1=O (stereo not given)
stdout: > 100 µM

stdin: For the compound CCOC(=O)C(Cc1ccc2ccccc2c1)(Cc1ccc2ccccc2c1)C(C)=O , what TGI is on record?
stdout: > 10 µM

---

The entries below come with measured GI50 values attached.
System: SW-620 colon
Experimental Protocol: NCI tumour cell line growth inhibition, 48 h

Below, 2 compounds whose answers are already recorded.
INSERT INTO results (chemical_string, result) VALUES
  ('CN(C)CCCn1c2c(c3ccccc3c1=O)C(=O)c1ccccc1-2', '0.771 µM'),
  ('CCCCN=C(N)c1ccc(OCCSCCOc2ccc(C(N)=NCCCC)cc2)cc1', '10.2 µM');

stdin: Form entry - test system: SW-620 colon; read-out: GI50; compound: N.N.N.N.N.O=C([O-])c1nn[n-]n1.[Cl-].[Co+3]
stdout: > 100 µM

---

Tested on: SNB-19 CNS
Experimental Protocol: NCI tumour cell line growth inhibition, 48 h
# key: entry, value: TGI

INSERT INTO results (compound, result) VALUES
  ('O=C(Nc1ccc(Cl)cc1)c1cc(S(=O)(=O)Nc2n[nH]c(Nc3ccc4ccccc4c3)n2)c(SSc2cc(Cl)c(C(=O)Nc3ccc(Cl)cc3)cc2S(=O)(=O)Nc2n[nH]c(Nc3ccc4ccccc4c3)n2)cc1Cl', '50.4 µM');

stdin: # input compound: Cc1cc(SCC(=O)c2ccccc2)nc2ccccc12 ; wanted: its TGI
stdout: > 100 µM

stdin: Requested field: TGI. Item: Cc1ccc(/C(=C/C=C(C#N)C#N)Sc2ccc(Cl)cc2)cc1
stdout: 25.3 µM

stdin: Quick one: TGI for Cc1cccc2nc(-c3ccccc3)cc(=O)n12 ?
stdout: > 100 µM

stdin: Form field: reported TGI of CCN(CCCl)c1cc(CN(C)C)cc(NC(=O)c2ccc(C(=O)Nc3cc(CN(C)C)cc(N(CC)CCCl)c3)cc2)c1
stdout: 0.936 µM

stdin: What does the record list as TGI for CC(=O)O[C@H]1C(=O)[C@@]2(C)[C@H]([C@H](OC(=O)c3ccccc3)[C@]3(O)C[C@H](OC(=O)[C@H](O)[C@@H](NC(=O)c4ccc(N)cc4)c4ccccc4)C(C)=C1C3(C)C)[C@]1(OC(C)=O)CO[C@@H]1C[C@@H]2O ?
stdout: > 50 µM

---

Tested on: NCI/ADR-RES ovarian
Experimental Protocol: NCI tumour cell line growth inhibition, 48 h
# reported TGI; entries follow

Illustrative cases are given below, each with its answer.
INSERT INTO results (molecule, result) VALUES
  ('O=C1c2ccccc2-c2nnc(-c3ccc([N+](=O)[O-])cc3)cc21', '> 10 µM'),
  ('CN1CCCC2C(c3ccccc3)C(C3=NCCCC3)C(c3ccccc3)CC21 (stereo not drawn)', '> 100 µM'),
  ('Cc1cn(C2OC(CO[Si](C)(C)C(C)(C)C)/C(=C\C#N)C2O[Si](C)(C)C(C)(C)C)c(=O)[nH]c1=O (stereo not drawn)', '> 100 µM');

stdin: Query (molecule): COc1cc2oc(-c3ccc(O)cc3)cc(=O)c2c(OC)c1OC ; field requested: TGI
stdout: > 100 µM

stdin: Given the molecule NC(=S)N/N=C/c1ccc(OC(=O)COc2ccc(Cl)cc2)cn1 , what is its reported TGI?
stdout: > 100 µM

stdin: Using the record for C1C2CC3CC1CC(c1nn4c(C56CC7CC(CC(C7)C5)C6)nnc4s1)(C2)C3 , report its TGI.
stdout: > 100 µM

stdin: Given the molecule Cc1c2c(cc3c1C(=O)C(=O)C([C@@H](C)CO)=C3O)C(C)(C)CCC2 , what is its reported TGI?
stdout: > 100 µM

stdin: Could you tell me which TGI is on file for COc1ccc(C(=O)COc2cccc(/C=C3\COc4ccc5ccccc5c4C3=O)c2)cc1 ?
stdout: > 100 µM

stdin: For the molecule shown here, COc1cc(NC(=O)c2cc(O)c(CC=C(C)C)c(O)c2)cc2c1O[C@]1(C)CC[C@@H](O)C(C)(C)[C@H]1C2 , give the reported TGI.
stdout: > 100 µM

stdin: Consider the molecule CC12CCCC(O)C1CCC1=CC3(CCC12)SCCS3 (stereo not drawn) and give its measured TGI.
stdout: > 10 µM

stdin: Query (molecule): O=C(Nc1ccc(Cl)cc1)c1cc(S(=O)(=O)Nc2n[nH]c(Nc3ccc4ccccc4c3)n2)c(SSc2cc(Cl)c(C(=O)Nc3ccc(Cl)cc3)cc2S(=O)(=O)Nc2n[nH]c(Nc3ccc4ccccc4c3)n2)cc1Cl ; field requested: TGI
stdout: > 85.4 µM

stdin: Reported TGI, molecule CC1=CC[C@H](C[C@H](C#CCCCC2OCCO2)O[Si](C(C)C)(C(C)C)C(C)C)C(=O)CC1 : ____
stdout: > 100 µM

stdin: Could you tell me which TGI is on file for NC(CSS(=O)(=O)O)=NC1CC2CCC1C2 (stereo not drawn) ?
stdout: > 100 µM
